- Test system: U-937
- ASSAY_NAME: Cytotoxicity against human U937 cells after 48 hrs by MTT assay
- Type: functional, cell-based
- CONDITION_NOTES: Homo sapiens, U-937, 48 h
REPORTED_METRIC: pIC50
Reminder that pIC50 means the negative base-10 logarithm of the concentration expressed in mol/L.

CCOc1ccc2nc(Nc3nc4ccc(F)cc4s3)sc2c1 | 4.58
Fc1ccc(NC(=S)Nc2nc3ccccc3s2)cc1 | 4.49

Fill in the blank: the reported pIC50 of Fc1ccc2nc(NC(=S)Nc3ccc(Cl)cc3)sc2c1 is ____. 4.73

Fill in the blank: the reported pIC50 of Fc1ccc2nc(Nc3nc4ccccc4s3)sc2c1 is ____. 4.39
